# Tested on: Escherichia coli
# Assay remarks: Antibacterial activity against Escherichia coli assessed as zone of inhibition at 75 ug/ml incubated for 18-24 hrs at 37 degC by disc diffusion method
# Format: functional
# Test context: read-out: IZ
zone of inhibition at 75 µg/mL of 20 mm or higher: TRUE. Under 20 mm: FALSE.

Below are worked cases with known answers.
- Smiles structure: "O=C(c1ccncc1)N(/N=C/c1c[nH]nc1-c1ccc(Cl)cc1)C(=O)c1ccccc1Cl"
  Label value: "FALSE"
- Smiles structure: "O=C(c1ccncc1)N(/N=C/c1c[nH]nc1-c1ccc(Cl)cc1)C(=O)c1ccc(F)cc1"
  Label value: "FALSE"

[Q] Textbook exercise: given the entry "O=C(c1ccncc1)N(/N=C/c1c[nH]nc1-c1cccc(Cl)c1)C(=O)c1ccc(F)cc1" , state whether its zone of inhibition at 75 µg/mL is greater than or equal to 20 mm.
[A] FALSE

[Q] Proceed to "O=C(c1ccncc1)N(/N=C/c1c[nH]nc1-c1cccc(Cl)c1)C(=O)c1ccc(Cl)cc1"
[A] TRUE

[Q] Proceed to "COc1ccc(C(=O)N(/N=C/c2c[nH]nc2-c2cccc(Cl)c2)C(=O)c2ccncc2)cc1"
[A] FALSE

[Q] Proceed to "COc1ccc(C(=O)N(/N=C/c2c[nH]nc2-c2ccc(Cl)cc2)C(=O)c2ccncc2)cc1"
[A] FALSE

[Q] Proceed to "Cc1ccc(C(=O)N(/N=C/c2c[nH]nc2-c2cccc(Cl)c2)C(=O)c2ccncc2)cc1"
[A] FALSE

[Q] Proceed to "O=C(c1ccncc1)N(/N=C/c1c[nH]nc1-c1cccc(Cl)c1)C(=O)c1ccccc1Cl"
[A] FALSE

[Q] Proceed to "O=C(N/N=C/c1c[nH]nc1-c1cccc(Cl)c1)c1ccncc1"
[A] TRUE

* * *

# Assay remarks: Cytotoxicity against African green monkey Vero cells assessed as growth inhibition at 62.5 ug/ml after 3 days by MTT assay
# Type: cell-based
# Test context: chlorocebus sabaeus, read-out: GI
Observation type: inhibition at 72 h, 62.5 ug/ml (%)
Give bare numbers, in %.

Check out these entries, answers already filled in.
- Smiles structure: "O=C(c1ccncc1)N(/N=C/c1c[nH]nc1-c1ccc(Cl)cc1)C(=O)c1ccc(CCl)cc1"
  Value unit: "%"
  Data value: 12
- Smiles structure: "O=C(c1ccncc1)N(/N=C/c1c[nH]nc1-c1cccc(Cl)c1)C(=O)c1ccc(F)cc1"
  Value unit: "%"
  Data value: 17.8
- Smiles structure: "O=C(c1ccncc1)N(/N=C/c1c[nH]nc1-c1cccc(Cl)c1)C(=O)c1ccccc1Cl"
  Value unit: "%"
  Data value: 14.9
- Smiles structure: "O=C(c1ccncc1)N(/N=C/c1c[nH]nc1-c1cccc(Cl)c1)C(=O)c1ccc(Cl)cc1"
  Value unit: "%"
  Data value: 10.5

Here's the next entry for you.
[Q] Tell me the measured inhibition at 72 h, 62.5 ug/ml of "O=C(N/N=C/c1c[nH]nc1-c1cccc(Cl)c1)c1ccncc1" , please.
[A] 26.3

* * *

# Tested on: Escherichia coli
# Assay remarks: Antibacterial activity against Escherichia coli assessed as zone of inhibition at 75 ug/ml incubated for 18-24 hrs at 37 degC by disc diffusion method
# Type: functional
# Test context: read-out: IZ
Observation type: zone of inhibition at 75 µg/mL (mm)
Answers are plain numbers, in mm.

- Smiles structure: "O=C(c1ccncc1)N(/N=C/c1c[nH]nc1-c1cccc(Cl)c1)C(=O)c1ccc([N+](=O)[O-])cc1"
  Value unit: "mm"
  Data value: 15

# batch: return zone of inhibition at 75 µg/mL for each of the 2 compounds below
1. O=C(c1ccncc1)N(/N=C/c1c[nH]nc1-c1ccc(Cl)cc1)C(=O)c1ccc(CCl)cc1
2. O=C(N/N=C/c1c[nH]nc1-c1ccc(Cl)cc1)c1ccncc1

[A]
19
16

# batch: return zone of inhibition at 75 µg/mL for each of the 2 compounds below
1. Cc1ccc(C(=O)N(/N=C/c2c[nH]nc2-c2ccc(Cl)cc2)C(=O)c2ccncc2)cc1
2. O=C(c1ccncc1)N(/N=C/c1c[nH]nc1-c1cccc(Cl)c1)C(=O)c1ccc(CCl)cc1

[A]
1. 14
2. 16
